Ref: PubChem BioAssay AID720537

- Protocol text: qHTS for Inhibitors of TGF-b: Hit Validation in HepG2 Cells using COP promoter; also: nearly all actives have a fitted effect of over 70% in size
- Condition parameters: HepG2 COP-GFP TGF-b reporter, GFP fluorescence, 18 h, cells stimulated by added recombinant TGF-beta; series mostly up to 46.1 µM
The whole screen tested about 1,600 compounds, of which about 55 (3%) were called active. About 10% were inconclusive and are not listed. Calls follow the shape of the dose curve; as a rule, active = well fitted inhibition curve with a large enough effect; inconclusive = small, poorly fitted or top-dose-only effect; inactive = no such curve, though single readings can be large or run the other way. Not all results are given here.
Outcome codes: label 1 = active, label 0 = inactive

- Compound: "Cc1nc(/N=C(\\N)NC(=O)NC2CCCCC2)nc2ccccc12"
  Discrete label: "label 0"
- Compound: "COc1ccc2nc(N3CCN(C(=O)c4ccc([N+](=O)[O-])o4)CC3)sc2c1"
  Discrete label: "label 0"
- Compound: "CN(C)C(=O)c1cccc(-c2cnc3sc(NCc4ccc5c(c4)OCO5)nn23)c1"
  Discrete label: "label 0"
- Compound: "Cc1nn(-c2ccccc2)c(C)c1/C=N/NC(=O)CSc1nc2ccccc2c(=O)n1-c1ccccc1"
  Discrete label: "label 0"
- Compound: "O=C(Nc1ccc(Br)cn1)c1ccc([N+](=O)[O-])o1"
  Discrete label: "label 0"
- Compound: "CN(C)c1nc(N)nc(CSc2nnnn2-c2cccc3ccccc23)n1"
  Discrete label: "label 0"
- Compound: "COc1cc(CC(=O)Nc2nc(-c3ccc(F)c(F)c3)cs2)cc(OC)c1OC"
  Discrete label: "label 0"
- Compound: "OCC1OC(n2cnc3c(N4CCCC4)ncnc32)C(O)C1O (stereo not given)"
  Discrete label: "label 0"
- Compound: "CC(=NNC(=S)N1CCCCCC1)c1ccccn1"
  Discrete label: "label 0"
- Compound: "O=C(NC1=CC(=O)c2ccccc2C1=O)c1ccccc1"
  Discrete label: "label 1"
- Compound: "COc1cc(/C=C2\\Oc3ccc(C#Cc4ccc(O)cc4)cc3C2=O)cc(OC)c1"
  Discrete label: "label 0"
- Compound: "CCOC(=O)C1=C(N)N(c2ccc(C)cc2)C2=C(C(=O)CCC2)C1c1cccs1 (stereo not given)"
  Discrete label: "label 0"
- Compound: "OCCCNc1nccc(-c2cc(Nc3cccc(Cl)c3)ncn2)n1"
  Discrete label: "label 0"
- Compound: "c1ccc2cc3c(NCCN4CCOCC4)ccnc3cc2c1"
  Discrete label: "label 0"
- Compound: "O=C(/C(=C/c1cccc(Cl)c1)c1nc2ccccc2[nH]1)c1ccccc1"
  Discrete label: "label 0"
- Compound: "Cc1ccc(C)c(S(=O)(=O)N2CCN(CC(=O)Nc3ccc([N+](=O)[O-])cc3)CC2)c1"
  Discrete label: "label 0"
- Compound: "CCOc1ccc(CCN2C(=S)N([C@@H](CC(C)C)CN3CCC[C@@H]3CN3C(=S)NC[C@@H]3Cc3ccc(O)cc3)C[C@@H]2CC(C)C)cc1"
  Discrete label: "label 0"
- Compound: "CCCOc1ccc(F)cc1-c1cc(C(=O)Nc2ccc(F)c(Cl)c2)[nH]n1"
  Discrete label: "label 0"
- Compound: "COc1ccc(C(=O)c2c3ccc([N+](=O)[O-])cc3[n+]([O-])n2CCCN)cc1"
  Discrete label: "label 0"
- Compound: "COc1ccc(CNC(=O)C[C@H]2C[C@H](C(=O)N3CCOCC3)[C@@]3(CCC4CCCC4)c4[nH]c5ccc(Cl)cc5c4CCN3C2=O)cc1OC"
  Discrete label: "label 0"
